Target: T1, full-length beta-Catenin (Uniprot ID P35222) (Homo sapiens (Human), UniProt P35222 2-781)
T1 construct: full-length; also called bCat; B-Catenin
T1 sequence: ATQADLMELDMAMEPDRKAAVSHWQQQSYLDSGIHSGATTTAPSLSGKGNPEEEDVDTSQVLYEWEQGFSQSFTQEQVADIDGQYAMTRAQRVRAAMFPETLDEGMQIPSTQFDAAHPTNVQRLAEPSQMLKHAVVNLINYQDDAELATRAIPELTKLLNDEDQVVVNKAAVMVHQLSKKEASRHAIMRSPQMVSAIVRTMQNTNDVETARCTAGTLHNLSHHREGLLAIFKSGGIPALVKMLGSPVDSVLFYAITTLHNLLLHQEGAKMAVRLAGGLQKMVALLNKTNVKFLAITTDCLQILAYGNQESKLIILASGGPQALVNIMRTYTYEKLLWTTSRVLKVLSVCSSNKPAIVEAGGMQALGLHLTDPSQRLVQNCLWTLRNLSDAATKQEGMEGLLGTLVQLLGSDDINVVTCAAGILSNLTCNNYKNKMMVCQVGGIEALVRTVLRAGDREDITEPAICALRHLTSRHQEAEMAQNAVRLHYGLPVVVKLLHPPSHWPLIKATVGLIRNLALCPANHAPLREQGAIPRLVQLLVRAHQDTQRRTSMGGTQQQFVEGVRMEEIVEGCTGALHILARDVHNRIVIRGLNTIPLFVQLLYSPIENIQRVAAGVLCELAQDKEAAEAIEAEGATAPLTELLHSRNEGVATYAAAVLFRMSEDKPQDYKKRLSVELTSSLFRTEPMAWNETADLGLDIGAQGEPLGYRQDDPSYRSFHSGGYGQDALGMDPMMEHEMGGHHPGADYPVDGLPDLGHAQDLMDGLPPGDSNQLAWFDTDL
Test: fluorescence polarization competition; displaces 5FAM-TCF4(10-53) from full-length beta-catenin
pIC50: −log10 of the molar value. Starred links: 1 amine or outer side, 2 acyl side, 3 side chain; linkers in the order of their positions; H or OH if unused. Positions of bridges follow the written chain, without caps; N, C: chain ends. Non-standard residues stand in square brackets, D forms with d. Primed or numbered codes have the meaning given here. B5(15) = 2-amino-2-(pent-4-en-1-yl)hept-6-enoic acid (2,2-bis(4-pentenyl)glycine), stitching residue bearing two staples, C=CCCCC(CCCC=C)(N[*:1])C(=O)[*:2]; B5(23) = 2-amino-2-(pent-4-en-1-yl)hept-6-enoic acid (2,2-bis(4-pentenyl)glycine), stitching residue, C=CCCCC(CCCC=C)(N[*:1])C(=O)[*:2]; Bta = N[C@@H](Cc1csc2ccccc12)C(=O)O; αAllylPro = C=CC[C@@]1(C(=O)O)CCCN1; S8 = C=CCCCCCC[C@](C)(N)C(=O)O; hSer = N[C@@H](CCO)C(=O)O
The binders listed here are annotated with their pIC50.

| binder | pIC50 |
| --- | --- |
| Ac-[αAllylPro]DF[B5(23)]DEAAFL[S8]F[Bta]Q-NH2 (staple 1-4, 4-11, Stapled peptide composition; also called Ac-PL3-Asp-Phe-B5-Asp-Glu-Ala-Ala-Phe-Leu-S8-Phe-BztA-Gln-NH2) [I-1550] | 7.66 |
| Ac-[αAllylPro]DF[B5(23)]DEAAF[hSer][S8]F[Bta]Q-NH2 (staple 1-4, 4-11, Stapled peptide composition; also called Ac-PL3-Asp-Phe-B5-Asp-Glu-Ala-Ala-Phe-Hse-S8-Phe-BztA-Gln-NH2) [I-1551] | 7.80 |
| Ac-[αAllylPro]DQ[B5(15)]DEAAFL[S8]F[Bta]Q-NH2 (staple 1-4, 4-11, Stapled peptide composition; also called Ac-PL3-Asp-Gln-B5-Asp-Glu-Ala-Ala-Phe-Leu-S8-Phe-BztA-Gln-NH2) [I-1541] | 7.41 |
| Ac-[αAllylPro]D[hSer][B5(15)]DEAAF[hSer][S8]F[Bta]Q-NH2 (staple 1-4, 4-11; not fully specified; printed as Ac-PL3-Asp-Hse-B5-Asp-Glu-Ala-Ala-Phe-Hse-S8-Phe-BztA-Gln-NH2, Stapled peptide composition; Same description as I-1548; earlier eluting HPLC peak (staple isomer); also called Ac-PL3-Asp-Hse-B5-Asp-Glu-Ala-Ala-Phe-Hse-S8-Phe-BztA-Gln-NH2) [I-1547] | 7.17 |
| Ac-[αAllylPro]DK[B5(23)]DEAAF[hSer][S8]F[Bta]Q-NH2 (staple 1-4, 4-11, Stapled peptide composition; also called Ac-PL3-Asp-Lys-B5-Asp-Glu-Ala-Ala-Phe-Hse-S8-Phe-BztA-Gln-NH2) [I-1554] | 7.20 |
